system: SNB-19 CNS; assay: NCI tumour cell line growth inhibition, 48 h
RECORDED_ENDPOINT: TGI

Consider the following illustrative entries.
Enquiry: I would be grateful if you could share the reported TGI for CC(=O)c1ccc(N=NN2CCCC2)cc1 .
Return: > 100 µM

Enquiry: I would be grateful if you could share the reported TGI for COC(=O)C1CCC(=O)N1CN(C(C)=O)c1cccc(O)c1 (stereo unspecified) .
Return: > 100 µM

Enquiry: I would be grateful if you could share the reported TGI for Nc1nc(=S)c2c(ncn2CCO)[nH]1 .
Return: > 100 µM

Further cases:
Enquiry: I would be grateful if you could share the reported TGI for C=CCON(C(=O)OC(C)(C)C)C(C)(C)C .
Return: > 100 µM

Enquiry: I would be grateful if you could share the reported TGI for Cn1c(CNc2ccc(-c3n[nH]c(=S)n3C)cc2)n[nH]c1=S .
Return: > 100 µM

Enquiry: I would be grateful if you could share the reported TGI for CCCCCCCCCCCC[C@@H](O)[C@H]1CC[C@H]([C@H](O)CC[C@H](O)[C@@H]2CC[C@@H](CCCCCCCC3=C[C@H](C)OC3=O)O2)O1 .
Return: > 50 µM

* * *

Items are presented alongside their recorded TGI.
system: HCT-116 colon; test: NCI tumour cell line growth inhibition, 48 h

Enquiry: I would be grateful if you could share the reported TGI for O=C(CCc1cc(O)cc(O)c1)NCCc1cc(O)cc(OCc2ccccc2)c1 .
Return: > 100 µM

Further cases:
Enquiry: I would be grateful if you could share the reported TGI for NC1=NC(Cn2nc(-c3ccccc3)c3ccccc3c2=O)=NNC(=O)N1 .
Return: > 100 µM

Enquiry: I would be grateful if you could share the reported TGI for Cc1noc(NC(=O)Nc2ccccc2F)c1C#N .
Return: > 43 µM

Enquiry: I would be grateful if you could share the reported TGI for COc1ccc(/C=C2\C(=O)N(NC(C)=O)c3ccccc32)cc1 .
Return: > 100 µM

Enquiry: I would be grateful if you could share the reported TGI for CC[C@H](C)[C@H](NC(=O)[C@H]1CCCCN1C)C(=O)N(C)[C@H](C[C@@H](OC(C)=O)c1nc(C(=O)NC23CC(C(=O)OC)(C2)C3)cs1)C(C)C .
Return: > 32.5 µM

* * *

test system: LOX IMVI melanoma; test: NCI tumour cell line growth inhibition, 48 h
Items are presented alongside their recorded TGI.

Consider the following illustrative entries.
Enquiry: I would be grateful if you could share the reported TGI for COc1ccccc1C1c2cc3c(cc2OC2(OC)COC(=O)C12)OCO3 (stereo unspecified) .
Return: 67.1 µM

Enquiry: I would be grateful if you could share the reported TGI for C=CCNC(=O)C(C)C1CCC2(C)C=CC(=O)C(C)=C2C1O (stereo unspecified) .
Return: > 100 µM

Enquiry: I would be grateful if you could share the reported TGI for C#Cc1ccc(-n2c(/C=C/c3ccc(O)cc3)nc3ncccc3c2=O)cc1 .
Return: > 100 µM

Enquiry: I would be grateful if you could share the reported TGI for O=C1NC(=O)C2C(=O)NC(=O)C1C2Cc1ccco1 (stereo unspecified) .
Return: > 100 µM

Enquiry: I would be grateful if you could share the reported TGI for O=C1c2ccccc2C(=O)c2c(NC3CCCCC3)ccc(Nc3ccc(S(=O)(=O)O)cc3)c21 .
Return: > 100 µM

Further cases:
Enquiry: I would be grateful if you could share the reported TGI for COCCN(CCOC)c1nc(-c2ccccc2)nc2ccccc12 .
Return: > 100 µM

Enquiry: I would be grateful if you could share the reported TGI for Cc1ccc(S(=O)(=O)OC2CC(C(C)(C)C)CCC2c2ccccc2)cc1 (stereo unspecified) .
Return: > 100 µM

* * *

tested on: TK-10 renal; test: NCI tumour cell line growth inhibition, 48 h
Where a SMILES comes first, the peptide text is derived from it. Bridges are numbered along the chain shown (N, C = ends). [ ]: non-standard residue; d: D form. aThr = C[C@H](O)[C@H](N)C(=O)O
Items are presented alongside their recorded GI50.

Consider the following illustrative entries.
Enquiry: I would be grateful if you could share the reported GI50 for Nc1nc(=S)c2ncn(C3OC(COP(=O)(O)O)C(O)C3O)c2[nH]1 (configuration not stated) .
Return: 1.89 µM

Enquiry: I would be grateful if you could share the reported GI50 for OCCCCC#Cc1ccccc1C#Cc1cccc(C(F)(F)F)c1 .
Return: 16.9 µM

Enquiry: I would be grateful if you could share the reported GI50 for CC(=O)[CH-]C(=O)c1ccccc1.[C-]#[O+].[C-]#[O+].[Ir] .
Return: > 100 µM

Further cases:
Enquiry: I would be grateful if you could share the reported GI50 for COc1ccc(-c2nc3ccc(Cc4ccc5nc(-c6ccc(OC)cc6)[nH]c5c4)cc3[nH]2)cc1 .
Return: 1.1 µM

Enquiry: I would be grateful if you could share the reported GI50 for CC(C)C[C@@H]1NC(=O)[C@@H]2CCCN2C(=O)[C@@H]2CCCN2C(=O)[C@H](CC(C)C)NC(=O)[C@H](CO)NC(=O)[C@H](CCCCN)NC(=O)[C@H]([C@H](C)O)NC(=O)[C@@H]2CSSC[C@@H](NC1=O)C(=O)N[C@@H](Cc1ccccc1)C(=O)N1CCC[C@H]1C(=O)N[C@@H](CC(=O)O)C(=O)NCC(=O)N[C@@H](CCCN=C(N)N)C(=O)N2 (cyclo(C[aThr]KSLPPL[dC]FPDGR); disulfide 1-9) .
Return: > 50 µM

Enquiry: I would be grateful if you could share the reported GI50 for O=C(O)CN(CCN(CC(=O)O)CC(=O)O)CC(=O)O.[Mn+2] .
Return: > 100 µM

Enquiry: I would be grateful if you could share the reported GI50 for [O]=[V]([OH])([OH])[OH] .
Return: > 100 µM

* * *

tested on: OVCAR-8 ovarian; experiment: NCI tumour cell line growth inhibition, 48 h
Where a SMILES comes first, the peptide text is derived from it. Bridges are numbered along the chain shown (N, C = ends). [ ]: non-standard residue; d: D form. aThr = C[C@H](O)[C@H](N)C(=O)O
RECORDED_ENDPOINT: GI50

Consider the following illustrative entries.
Enquiry: I would be grateful if you could share the reported GI50 for CCCCCCCCCCCCCCNC(=O)Nc1ccc(Cl)c(Cl)c1 .
Return: 3.16 µM

Enquiry: I would be grateful if you could share the reported GI50 for OCC1CC[N-]CC1.OCC1CC[N-]CC1.[Cl][Pt+2]([Cl])([Cl])[Cl] .
Return: 31.1 µM

Enquiry: I would be grateful if you could share the reported GI50 for CC(C)C[C@@H]1NC(=O)[C@@H]2CCCN2C(=O)[C@@H]2CCCN2C(=O)[C@H](CC(C)C)NC(=O)[C@H](CO)NC(=O)[C@H](CCCCN)NC(=O)[C@H]([C@H](C)O)NC(=O)[C@@H]2CSSC[C@@H](NC1=O)C(=O)N[C@@H](Cc1ccccc1)C(=O)N1CCC[C@H]1C(=O)N[C@@H](CC(=O)O)C(=O)NCC(=O)N[C@@H](CCCN=C(N)N)C(=O)N2 (cyclo(C[aThr]KSLPPL[dC]FPDGR); disulfide 1-9) .
Return: > 50 µM

Enquiry: I would be grateful if you could share the reported GI50 for CCC(c1ccccc1)c1noc(CCN(CC)CC)n1 (centres undefined) .
Return: 32.5 µM

Enquiry: I would be grateful if you could share the reported GI50 for S=C1SCN(Cc2ccccc2)CN1Cc1ccco1 .
Return: 5.71 µM

Further cases:
Enquiry: I would be grateful if you could share the reported GI50 for COCCN(CCOC)c1nc(-c2ccccc2)nc2ccccc12 .
Return: 33.7 µM

* * *

tested on: SNB-75 CNS; test: NCI tumour cell line growth inhibition, 48 h
Items are presented alongside their recorded TGI.

Consider the following illustrative entries.
Enquiry: I would be grateful if you could share the reported TGI for O=C(c1ccccc1)C1(Br)S(=O)(=O)OCCOS1(=O)=O .
Return: > 100 µM

Enquiry: I would be grateful if you could share the reported TGI for Cn1c(CNc2ccc(-c3n[nH]c(=S)n3C)cc2)n[nH]c1=S .
Return: > 100 µM

Switching to the query record.
Enquiry: I would be grateful if you could share the reported TGI for Nc1nc(=S)c2ncn(C3OC(COP(=O)(O)O)C(O)C3O)c2[nH]1 (stereo not drawn) .
Return: > 100 µM

* * *

Items are presented alongside their recorded GI50.
tested on: OVCAR-3 ovarian; assay: NCI tumour cell line growth inhibition, 48 h

Consider the following illustrative entries.
Enquiry: I would be grateful if you could share the reported GI50 for COc1ccccc1Oc1nccc(-c2c(-c3ccc(F)cc3)ncn2C2CCNCC2)n1 .
Return: > 25 µM

Enquiry: I would be grateful if you could share the reported GI50 for Cc1cc(Br)c(NC(=O)c2c(-c3c(Cl)cccc3Cl)noc2C)c(Br)c1 .
Return: > 100 µM

Enquiry: I would be grateful if you could share the reported GI50 for COc1ccc(-c2nc3ccc(Cc4ccc5nc(-c6ccc(OC)cc6)[nH]c5c4)cc3[nH]2)cc1 .
Return: 0.0217 µM

Further cases:
Enquiry: I would be grateful if you could share the reported GI50 for O=C1c2cc3c(cc2-c2c1c1ccc(Cl)cc1c(=O)n2C[C@H](O)CO)OCO3 .
Return: 0.0615 µM

Enquiry: I would be grateful if you could share the reported GI50 for OCC1CC[N-]CC1.OCC1CC[N-]CC1.[Cl][Pt+2]([Cl])([Cl])[Cl] .
Return: 45.9 µM

Enquiry: I would be grateful if you could share the reported GI50 for COc1cc(C(=O)/C=C/c2cccc(Nc3ccnc4cc(Cl)ccc34)c2)cc(OC)c1OC .
Return: 0.389 µM

Enquiry: I would be grateful if you could share the reported GI50 for CCc1ccc(Nc2cc(C)c3ccc(O)cc3n2)cc1 .
Return: 11.7 µM

Enquiry: I would be grateful if you could share the reported GI50 for S=C1SCN(Cc2ccccc2)CN1Cc1ccco1 .
Return: 3.98 µM

Enquiry: I would be grateful if you could share the reported GI50 for COc1ccccc1CNCCN1C(=O)c2ccc3c4c(ccc(c24)C1=O)C(=O)N(CCNCc1ccccc1OC)C3=O .
Return: 0.207 µM

Enquiry: I would be grateful if you could share the reported GI50 for C(=Nc1nc(SCc2ccccc2)nc2[nH]ncc12)c1cccs1 .
Return: > 100 µM
